Biological target: USP7 (Homo sapiens (Human), UniProt Q93009)
Sequence (Q93009 whole entry): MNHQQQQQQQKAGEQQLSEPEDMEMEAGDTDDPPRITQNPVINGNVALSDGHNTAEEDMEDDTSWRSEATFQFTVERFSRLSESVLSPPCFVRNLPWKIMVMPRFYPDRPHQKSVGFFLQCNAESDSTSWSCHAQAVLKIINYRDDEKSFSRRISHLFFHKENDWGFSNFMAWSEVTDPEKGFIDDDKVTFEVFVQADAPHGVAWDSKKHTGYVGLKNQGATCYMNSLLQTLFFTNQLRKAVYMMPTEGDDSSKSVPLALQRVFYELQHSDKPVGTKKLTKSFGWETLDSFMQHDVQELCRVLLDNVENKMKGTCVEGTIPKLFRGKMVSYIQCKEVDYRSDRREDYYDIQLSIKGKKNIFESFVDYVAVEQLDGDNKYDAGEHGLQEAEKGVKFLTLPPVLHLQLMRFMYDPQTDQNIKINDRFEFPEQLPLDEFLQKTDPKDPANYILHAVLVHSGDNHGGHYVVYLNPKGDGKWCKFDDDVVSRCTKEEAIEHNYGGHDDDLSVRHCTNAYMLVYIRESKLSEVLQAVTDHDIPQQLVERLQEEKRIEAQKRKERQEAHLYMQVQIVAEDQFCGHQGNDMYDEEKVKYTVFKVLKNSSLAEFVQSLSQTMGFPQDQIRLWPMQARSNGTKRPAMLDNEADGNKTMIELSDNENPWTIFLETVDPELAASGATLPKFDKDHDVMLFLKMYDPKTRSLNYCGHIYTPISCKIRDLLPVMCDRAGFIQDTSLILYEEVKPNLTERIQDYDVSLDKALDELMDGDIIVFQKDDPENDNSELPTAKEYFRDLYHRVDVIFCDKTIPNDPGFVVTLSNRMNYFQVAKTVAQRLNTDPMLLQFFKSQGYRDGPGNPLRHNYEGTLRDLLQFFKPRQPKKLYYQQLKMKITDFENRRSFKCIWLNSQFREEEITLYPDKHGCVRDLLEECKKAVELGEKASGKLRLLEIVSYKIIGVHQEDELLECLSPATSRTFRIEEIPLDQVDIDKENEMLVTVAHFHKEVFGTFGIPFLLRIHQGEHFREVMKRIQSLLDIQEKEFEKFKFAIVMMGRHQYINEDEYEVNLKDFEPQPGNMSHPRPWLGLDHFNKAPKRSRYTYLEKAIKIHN
Assay: USP7 fluorescence polarisation (FP) biochemical assay, ubiquitin-Lys-TAMRA substrate
Settings: USP7 IC50, Table 4, biochemical assay; average of at least duplicate experiments
Structures can show the parent of a compound that is named as a salt.

Compound: C[C@H](CC(=O)N1CCC(O)(Cn2cnc(-c3cnn(CCN(C)C)c3)cc2=O)CC1)c1ccccc1
IC50: 250 to 999 nM
--
Compound: C[C@H](CC(=O)N1CCC(O)(Cn2cnc(N3CC4(CCOC4)C3)cc2=O)CC1)c1ccccc1
IC50: 250 to 999 nM
--
Compound: C[C@H](CC(=O)N1CCC(O)(Cn2cnc(N3CCC4(CCNC4)CC3)cc2=O)CC1)c1ccccc1 [Example 49, hydrochloride]
IC50: 250 to 999 nM
--
Compound: C[C@H](CC(=O)N1CCC(O)(Cn2cnc(N3C[C@@H]4C[C@H]3CN(C)C4)cc2=O)CC1)c1ccccc1 (single isomer, unassigned)
IC50: < 250 nM

---

pIC50 values, listed per item
Target: USP7 (Homo sapiens (Human), UniProt Q93009)
Test: USP7 fluorescence polarisation (FP) biochemical assay, ubiquitin-Lys-TAMRA substrate
Details: Table 1, R9a = H versus R9a = Cl; read-out: USP7 IC50
pIC50: −log10 of the molar value.

Compound: CC1(C(=O)N2CCC(O)(Cn3cnc4c(cc(Cl)n4-c4ccc5c(c4)OCO5)c3=O)CC2)CC1 [Example 202]
pIC50: 6.60
--
Compound: Cn1cc(-c2cccc(-n3c(Cl)cc4c(=O)n(CC5(O)CCN(C(=O)C6(C)CC6)CC5)cnc43)c2)cn1 [Example 212]
pIC50: 6.85
--
Compound: CC1(C(=O)N2CCC(O)(Cn3cnc4c(cc(Cl)n4-c4ccc(Cl)cc4)c3=O)CC2)CC1 [Example 203]
pIC50: 6.66

---

pIC50 values, listed per item
Target: USP7 (Homo sapiens (Human), UniProt Q93009)
Assay: USP7 fluorescence polarisation (FP) biochemical assay, ubiquitin-Lys-TAMRA substrate
Settings: Table 4, biochemical assay; average of at least duplicate experiments; read-out: USP7 IC50
pIC50: −log10 of the molar value.

Smiles Code: CC1(C(=O)N2CCC(O)(Cn3cnc4c(cc(Cl)n4-c4cccc(C5CC5)c4)c3=O)CC2)CC1
pIC50: > 6.60
//
Smiles Code: C[C@H](CC(=O)N1CCC(O)(Cn2cnc(N(C)CCO)cc2=O)CC1)c1ccccc1
pIC50: 3.70 to 6.00
//
Smiles Code: Cc1nc2c(=O)n(CC3(O)CCN(C(=O)CC(C4CC4)C4CC4)CC3)cnc2n1-c1ccccc1
pIC50: 3.70 to 6.00
//
Smiles Code: Cn1nc2c(=O)n(CC3(O)CCN(C(=O)c4cnc(C5CC5)o4)CC3)cnc2c1-c1ccc(CN)cc1
pIC50: 6.00 to 6.60
//
Smiles Code: C[C@@H](N)c1ccc(-c2c3ncn(CC4(O)CCN(C(=O)C[C@H](c5ccccc5)C(F)(F)F)CC4)c(=O)c3nn2C)cc1
pIC50: > 6.60
//
Smiles Code: COCC1CN(c2cc(=O)n(CC3(O)CCN(C(=O)C[C@@H](C)c4ccccc4)CC3)cn2)C1
pIC50: 3.70 to 6.00
//
Smiles Code: C[C@H](CC(=O)N1CCC(O)(Cn2cnc3c(-c4ccc(C5(N)CCC5)cc4)n(C)nc3c2=O)CC1)c1ccccc1
pIC50: > 6.60

---

Biological target: USP7 (Homo sapiens (Human))
Assay: USP7 fluorescence polarisation (FP) biochemical assay, ubiquitin-Lys-TAMRA substrate
Conditions: Table 4, biochemical assay; average of at least duplicate experiments; read-out: USP7 IC50
pIC50: −log10 of the molar value.

Smiles Code: C[C@H](CC(=O)N1CCC(O)(Cn2cnc(Cl)cc2=O)CC1)c1ccccc1
Assay Target: USP7 (Homo sapiens (Human))
pIC50: 3.70 to 6.00

Smiles Code: Cn1nc2c(=O)n(CC3(O)CCN(C(=O)C4(C)CC4)CC3)cnc2c1-c1ccc(CN)cc1
Assay Target: USP7 (Homo sapiens (Human))
pIC50: 3.70 to 6.00

Smiles Code: CNCc1ccc(-c2c3ncn(CC4(O)CCN(C(=O)C[C@H](c5ccccc5)C(F)(F)F)CC4)c(=O)c3nn2C)cc1
Assay Target: USP7 (Homo sapiens (Human))
pIC50: > 6.60

Smiles Code: C[C@H](CC(=O)N1CCC(O)(Cn2cnc(NCCNc3ccccc3)cc2=O)CC1)c1ccccc1
Assay Target: USP7 (Homo sapiens (Human))
pIC50: 3.70 to 6.00

Smiles Code: Cn1nccc1-c1cccc(-n2c(Cl)cc3c(=O)n(CC4(O)CCN(C(=O)c5cnc(C6CC6)o5)CC4)cnc32)c1
Assay Target: USP7 (Homo sapiens (Human))
pIC50: 6.00 to 6.60

Smiles Code: C[C@H](CC(=O)N1CCC(O)(Cn2cnc3c(ncn3C)c2=O)CC1)c1ccccc1
Assay Target: USP7 (Homo sapiens (Human))
pIC50: 3.70 to 6.00

Smiles Code: C[C@H](CC(=O)N1CCC(O)(Cn2cnc3c(nnn3-c3ccccc3)c2=O)CC1)c1ccccc1
Assay Target: USP7 (Homo sapiens (Human))
pIC50: > 6.60

Smiles Code: Cn1nc2c(=O)n(CC3(O)CCN(C(=O)C[C@H](c4ccccc4)C(F)(F)F)CC3)cnc2c1-c1ccc(C2(N)CCC2)cc1
Assay Target: USP7 (Homo sapiens (Human))
pIC50: > 6.60

Smiles Code: Cn1nccc1-c1cccc(-n2c(Cl)cc3c(=O)n(CC4(O)CCN(C(=O)C5(C)CC5)CC4)cnc32)c1
Assay Target: USP7 (Homo sapiens (Human))
pIC50: 6.00 to 6.60

Smiles Code: Cn1cc(-c2cccc(-n3c(Cl)cc4c(=O)n(CC5(O)CCN(C(=O)C6(C)CC6)CC5)cnc43)c2)cn1
Assay Target: USP7 (Homo sapiens (Human))
pIC50: > 6.60

Smiles Code: C[C@H](CC(=O)N1CCC(O)(Cn2cnc(N3CCOCC3)cc2=O)CC1)c1ccccc1
Assay Target: USP7 (Homo sapiens (Human))
pIC50: 3.70 to 6.00

Smiles Code: [2H]C1([2H])Oc2ccc(-n3c(Cl)cc4c(=O)n(CC5(O)CCN(C(=O)c6cnc(C7CC7)o6)CC5)cnc43)cc2O1
Assay Target: USP7 (Homo sapiens (Human))
pIC50: > 6.60

Smiles Code: C[C@H](CC(=O)N1CCC(O)(Cn2cnc(-c3ccncc3)cc2=O)CC1)c1ccccc1
Assay Target: USP7 (Homo sapiens (Human))
pIC50: 3.70 to 6.00

Smiles Code: Cn1nc2c(=O)n(CC3(O)CCN(C(=O)c4cnc(C5CC5)o4)CC3)cnc2c1-c1ccccc1
Assay Target: USP7 (Homo sapiens (Human))
pIC50: 3.70 to 6.00

Smiles Code: C=C(C)[C@H](C)CC(=O)N1CCC(O)(Cn2cnc3c(-c4ccccc4)n(C)nc3c2=O)CC1
Assay Target: USP7 (Homo sapiens (Human))
pIC50: 6.00 to 6.60

---

IC50 values, listed per item
Molecular target: USP7 (Homo sapiens (Human), UniProt Q93009)
Assay: USP7 fluorescence polarisation (FP) biochemical assay, ubiquitin-Lys-TAMRA substrate
Conditions: Table 4, biochemical assay; average of at least duplicate experiments; read-out: USP7 IC50
Reported Metric: IC50

Molecule: Cn1cc(-c2cc(-n3c(Cl)cc4c(=O)n(CC5(O)CCN(C(=O)C6(C)CC6)CC5)cnc43)ccc2F)cn1 [Example 233]
Measured: < 0.25 µM
//
Molecule: Cn1cc(C(=O)N2CCC(O)(Cn3cnc4c(cc(Cl)n4-c4ccc(Cl)cc4)c3=O)CC2)cn1 [Example 229]
Measured: 0.25 to 0.999 µM
//
Molecule: O=C(CCC1CCC1)N1CCC(O)(Cn2cnc3c(nnn3-c3ccccc3)c2=O)CC1 [Example 186]
Measured: 1 to 200 µM
//
Molecule: CC(=O)N1CCC(O)(Cn2cnc3c(-c4ccccc4)n(C)nc3c2=O)CC1 [Example 131]
Measured: 1 to 200 µM
//
Molecule: Cc1nc2c(=O)n(CC3(O)CCN(C(=O)C[C@@H](C)c4ccccc4)CC3)cnc2n1-c1ccccc1 [Example 188]
Measured: < 0.25 µM
//
Molecule: O=C(c1cnc(C2CC2)o1)N1CCC(O)(Cn2cnc3c(cc(Cl)n3-c3cccc(C4CC4)c3)c2=O)CC1 [Example 217]
Measured: < 0.25 µM
//
Molecule: Cn1nc2c(=O)n(CC3(O)CCN(C(=O)C[C@H](c4ccccc4)C(F)(F)F)CC3)cnc2c1-c1ccc(CN)c(F)c1 [Example 82]
Measured: < 0.25 µM
//
Molecule: COc1ccc(-n2c(Cl)cc3c(=O)n(CC4(O)CCN(C(=O)C5(C)CC5)CC4)cnc32)cc1OC [Example 239]
Measured: < 0.25 µM
//
Molecule: C[C@H](CC(=O)N1CCC(O)(Cn2cnc(N[C@@H]3CCCC[C@@H]3N)cc2=O)CC1)c1ccccc1 (racemic) [Example 64]
Measured: 0.25 to 0.999 µM
//
Molecule: Cn1nccc1-c1cc(-n2c(Cl)cc3c(=O)n(CC4(O)CCN(C(=O)c5cnc(C6CC6)o5)CC4)cnc32)ccc1F [Example 230]
Measured: 0.25 to 0.999 µM
